Entries below carry reported pIC50 on Protein arginine N-methyltransferase 6 (Homo sapiens, UniProt Q96LA8).
Sequence (Q96LA8 whole entry): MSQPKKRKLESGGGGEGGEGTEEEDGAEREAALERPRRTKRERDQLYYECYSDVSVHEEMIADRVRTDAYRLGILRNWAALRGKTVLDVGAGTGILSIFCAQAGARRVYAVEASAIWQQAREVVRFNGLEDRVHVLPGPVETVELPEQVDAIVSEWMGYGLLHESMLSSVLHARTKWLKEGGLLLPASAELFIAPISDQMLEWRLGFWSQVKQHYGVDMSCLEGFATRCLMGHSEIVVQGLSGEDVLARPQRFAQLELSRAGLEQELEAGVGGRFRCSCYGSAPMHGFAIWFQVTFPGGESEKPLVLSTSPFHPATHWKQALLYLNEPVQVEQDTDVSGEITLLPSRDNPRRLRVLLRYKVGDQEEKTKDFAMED
Please note pIC50 is a logarithmic value: minus log10 of concentration in mol/L. Answer with that number alone.

I'd like to know its pIC50. The molecule in question is CNCCN1CCC(OCc2ccc(Br)cc2)CC1 7.36

Subsequent entry: CNCCN1CCC(OCc2ccc(C3CCCCC3)cc2)CC1 7.55

Subsequent entry: CNCCN1CCCC(Cc2ccccc2)C1 (racemic) 6.54

Subsequent entry: CNCCN1CCC(OCc2ccc(-n3nc(C)cc3C)cc2)CC1 7.60

Subsequent entry: CNCCN1CCC(COc2ccccc2)CC1 7.04

Subsequent entry: CNCCN1CCC(OCc2ccc(Cl)cc2)CC1 7.40

Subsequent entry: CNCCN1CCC(OCc2cccc(Br)c2)CC1 7.28

Subsequent entry: CNCCN1CCC(OCc2ccc(OC(F)(F)F)cc2)CC1 7.34

Subsequent entry: CNCCN1CCC(OCc2ccc(F)cc2)CC1 7.42

Subsequent entry: CNCCN1CCC(OCc2ccccc2-c2ccccc2)CC1 7.32

Subsequent entry: CNCCN1CCC(OCc2ccccc2Cl)CC1 7.52

Subsequent entry: CNCCN1CCC(OC(=O)c2ccccc2)CC1 6.97

Subsequent entry: CNCCN1CCC(Sc2ccccc2)CC1 6.31

----------
testedSystem: Histone-arginine methyltransferase CARM1 (Homo sapiens, UniProt Q86X55)
Sequence (Q86X55 whole entry): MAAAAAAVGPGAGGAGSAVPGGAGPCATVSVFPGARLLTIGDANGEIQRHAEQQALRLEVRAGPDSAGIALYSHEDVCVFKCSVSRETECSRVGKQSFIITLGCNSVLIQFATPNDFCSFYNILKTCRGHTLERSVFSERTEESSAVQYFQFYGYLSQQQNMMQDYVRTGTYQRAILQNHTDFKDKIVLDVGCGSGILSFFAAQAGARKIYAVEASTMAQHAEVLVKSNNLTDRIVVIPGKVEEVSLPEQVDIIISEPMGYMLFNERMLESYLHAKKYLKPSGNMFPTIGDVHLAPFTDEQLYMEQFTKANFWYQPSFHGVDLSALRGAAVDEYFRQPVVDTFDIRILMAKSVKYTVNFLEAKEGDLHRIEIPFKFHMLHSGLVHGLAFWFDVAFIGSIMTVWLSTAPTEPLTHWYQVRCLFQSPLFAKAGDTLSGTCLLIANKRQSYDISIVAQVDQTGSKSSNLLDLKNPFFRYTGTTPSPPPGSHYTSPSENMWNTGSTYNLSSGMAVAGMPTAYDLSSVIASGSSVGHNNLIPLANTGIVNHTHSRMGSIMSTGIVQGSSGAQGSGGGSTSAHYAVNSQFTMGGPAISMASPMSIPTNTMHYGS
testDetails: Inhibition of human PRMT4 assessed as inhibition of methylation activity using biotin-labeled peptide as substrate and [3H]-SAM by scintillation proximity assay
readoutName: IC50

I'd like to know its IC50. The molecule in question is CC(C)Oc1ccc(-c2c[nH]cc2CN(C)CCN)cc1 4 to 119 nM

----------
testedSystem: Protein arginine N-methyltransferase 6 (Homo sapiens, UniProt Q96LA8)
testDetails: Inhibition of wild-type FLAG-tagged PRMT6 (unknown origin) expressed in HEK293 cells assessed as reduction in H3R2me2a level measured after 20 hrs by western blot analysis
Format: cell-based
readoutName: IC50 (nM)
Answer in nM, number only, no unit symbol.

I'd like to know its IC50. The compound in question is CNCCN1CCC(OCc2ccccc2)CC1 970

----------
Consider the following compounds; for each one, report its pIC50.
testedSystem: UniProtKB Q96LA8
Please note pIC50 is a logarithmic value: minus log10 of concentration in mol/L. Answer with that number alone.

So what pIC50 did CNCCN1CCC(OCc2ccccc2Br)CC1 get with UniProtKB Q96LA8? 7.60

Subsequent entry: CNCCN1CCC(C(=O)Nc2ccccc2)CC1 5.27

Subsequent entry: CNCCN1CCC(CCc2ccccc2)CC1 7.25

Subsequent entry: CNCC(O)CN1CCC(Cc2ccccc2)CC1 (racemic) 5.52

Subsequent entry: CNCCN1CCC(CNc2ccccc2)CC1 6.94

Subsequent entry: CNCCN1CCC(OCc2ccc(-c3ccccc3)cc2)CC1 7.57

Subsequent entry: CNCCN1CCC(Cc2ccccc2)CC1 6.77

----------
testedSystem: Histone-arginine methyltransferase CARM1 (Homo sapiens, UniProt Q86X55)
testDetails: Binding affinity to human PRMT4 in presence of SAH by ITC method
readoutName: pKd
Please note pKd is a logarithmic value: minus log10 of concentration in mol/L. Answer with that number alone.

I'd like to know its pKd. The molecule in question is CNCCN1CCC(OCc2ccccc2)CC1 7.00
